Cited source: the supplement of paper PMC10724198

Tested on: Saccharomyces cerevisiae;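 note: PSI is a weighted mean of sequencing reads over stability bins, variants kept only with over 10 reads, mCherry proximal and sfGFP distal, peptide attached via GGGS linker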
methodDescription: protein stability index of tFT-peptide fusion (C-terminal peptide) (PSI (0-1 scale)); higher = more stable (slower turnover)
testConditions: genetic background: doa10 deletion; temperature: 30 C
Quick reference for protein stability index among some sequences
endpointName: protein stability index

[[record]]
sequenceentry = "SWELKWVYARVV"
targetdesc = "Saccharomyces cerevisiae"
endpointname = "protein stability index"
assayvalue = 0.093

[[record]]
sequenceentry = "SYALGNVVGGSL"
targetdesc = "Saccharomyces cerevisiae"
endpointname = "protein stability index"
assayvalue = 0.631

[[record]]
sequenceentry = "CFFLSFNVFRLF"
targetdesc = "Saccharomyces cerevisiae"
endpointname = "protein stability index"
assayvalue = 0.107

[[record]]
sequenceentry = "GYSMPVSFFFAL"
targetdesc = "Saccharomyces cerevisiae"
endpointname = "protein stability index"
assayvalue = 0.201

[[record]]
sequenceentry = "LFLIFFSFLFLC"
targetdesc = "Saccharomyces cerevisiae"
endpointname = "protein stability index"
assayvalue = 0.211

[[record]]
sequenceentry = "GGRREWCRGGGV"
targetdesc = "Saccharomyces cerevisiae"
endpointname = "protein stability index"
assayvalue = 0.544

[[record]]
sequenceentry = "CYKYTYVKNNMI"
targetdesc = "Saccharomyces cerevisiae"
endpointname = "protein stability index"
assayvalue = 0.197

[[record]]
sequenceentry = "CHFLLHYVFLLS"
targetdesc = "Saccharomyces cerevisiae"
endpointname = "protein stability index"
assayvalue = 0.241

[[record]]
sequenceentry = "TFRVLFSVALLV"
targetdesc = "Saccharomyces cerevisiae"
endpointname = "protein stability index"
assayvalue = 0.18

[[record]]
sequenceentry = "YGWILQLPCFVI"
targetdesc = "Saccharomyces cerevisiae"
endpointname = "protein stability index"
assayvalue = 0.219

[[record]]
sequenceentry = "GFFLLSFLFFVR"
targetdesc = "Saccharomyces cerevisiae"
endpointname = "protein stability index"
assayvalue = 0.234

[[record]]
sequenceentry = "RGKVVRGLLFCA"
targetdesc = "Saccharomyces cerevisiae"
endpointname = "protein stability index"
assayvalue = 0.137

[[record]]
sequenceentry = "VFSGVTTILVRT"
targetdesc = "Saccharomyces cerevisiae"
endpointname = "protein stability index"
assayvalue = 0.346

[[record]]
sequenceentry = "VFSFGLLFQVCR"
targetdesc = "Saccharomyces cerevisiae"
endpointname = "protein stability index"
assayvalue = 0.408

[[record]]
sequenceentry = "MALAVRVVLCGA"
targetdesc = "Saccharomyces cerevisiae"
endpointname = "protein stability index"
assayvalue = 0.116

[[record]]
sequenceentry = "VCVAVCFVMCGG"
targetdesc = "Saccharomyces cerevisiae"
endpointname = "protein stability index"
assayvalue = 0.276

[[record]]
sequenceentry = "WKNIHGVFVFVM"
targetdesc = "Saccharomyces cerevisiae"
endpointname = "protein stability index"
assayvalue = 0.25

[[record]]
sequenceentry = "RPPSLVFLFLLT"
targetdesc = "Saccharomyces cerevisiae"
endpointname = "protein stability index"
assayvalue = 0.401

[[record]]
sequenceentry = "FVLWLIYVDLFF"
targetdesc = "Saccharomyces cerevisiae"
endpointname = "protein stability index"
assayvalue = 0.181

[[record]]
sequenceentry = "RISGSIVVRKRS"
targetdesc = "Saccharomyces cerevisiae"
endpointname = "protein stability index"
assayvalue = 0.425

[[record]]
sequenceentry = "CMAWLSVLKTLF"
targetdesc = "Saccharomyces cerevisiae"
endpointname = "protein stability index"
assayvalue = 0.387

[[record]]
sequenceentry = "HRFCAPSLSASD"
targetdesc = "Saccharomyces cerevisiae"
endpointname = "protein stability index"
assayvalue = 0.665

[[record]]
sequenceentry = "CGFVFFVLVVFW"
targetdesc = "Saccharomyces cerevisiae"
endpointname = "protein stability index"
assayvalue = 0.15

[[record]]
sequenceentry = "SRPLYVMICTRV"
targetdesc = "Saccharomyces cerevisiae"
endpointname = "protein stability index"
assayvalue = 0.246

[[record]]
sequenceentry = "RVVNRWGVCFLG"
targetdesc = "Saccharomyces cerevisiae"
endpointname = "protein stability index"
assayvalue = 0.124

[[record]]
sequenceentry = "VKVKMKIIIIIK"
targetdesc = "Saccharomyces cerevisiae"
endpointname = "protein stability index"
assayvalue = 0.309

[[record]]
sequenceentry = "HLRWYITGIVWF"
targetdesc = "Saccharomyces cerevisiae"
endpointname = "protein stability index"
assayvalue = 0.311

[[record]]
sequenceentry = "LFVSLSFVVFLP"
targetdesc = "Saccharomyces cerevisiae"
endpointname = "protein stability index"
assayvalue = 0.261

[[record]]
sequenceentry = "VLGFRPLVFLCF"
targetdesc = "Saccharomyces cerevisiae"
endpointname = "protein stability index"
assayvalue = 0.392

[[record]]
sequenceentry = "EVVFHVFLVGLV"
targetdesc = "Saccharomyces cerevisiae"
endpointname = "protein stability index"
assayvalue = 0.203

[[record]]
sequenceentry = "VFAWSLYLRWAW"
targetdesc = "Saccharomyces cerevisiae"
endpointname = "protein stability index"
assayvalue = 0.481

[[record]]
sequenceentry = "MPQSLKKMVFLA"
targetdesc = "Saccharomyces cerevisiae"
endpointname = "protein stability index"
assayvalue = 0.0709

[[record]]
sequenceentry = "YAFSTCTILIRF"
targetdesc = "Saccharomyces cerevisiae"
endpointname = "protein stability index"
assayvalue = 0.38

[[record]]
sequenceentry = "LGSCSLIYRKFS"
targetdesc = "Saccharomyces cerevisiae"
endpointname = "protein stability index"
assayvalue = 0.0934

[[record]]
sequenceentry = "VTEGMKEVIKQI"
targetdesc = "Saccharomyces cerevisiae"
endpointname = "protein stability index"
assayvalue = 0.375

[[record]]
sequenceentry = "FCFVRGLLFLFF"
targetdesc = "Saccharomyces cerevisiae"
endpointname = "protein stability index"
assayvalue = 0.386

[[record]]
sequenceentry = "FPFPLSSFLLLY"
targetdesc = "Saccharomyces cerevisiae"
endpointname = "protein stability index"
assayvalue = 0.415

[[record]]
sequenceentry = "CVFAYSPVALRC"
targetdesc = "Saccharomyces cerevisiae"
endpointname = "protein stability index"
assayvalue = 0.412

[[record]]
sequenceentry = "DGSFCLLYMTIA"
targetdesc = "Saccharomyces cerevisiae"
endpointname = "protein stability index"
assayvalue = 0.293

[[record]]
sequenceentry = "RNTLLFKRILHI"
targetdesc = "Saccharomyces cerevisiae"
endpointname = "protein stability index"
assayvalue = 0.0865

[[record]]
sequenceentry = "RAVLRFVMVWVL"
targetdesc = "Saccharomyces cerevisiae"
endpointname = "protein stability index"
assayvalue = 0.253

